Data origin: PubChem BioAssay (NCI)

# reported GI50; entries follow
- Test system: MOLT-4 leukemia
- Assay Explanation: NCI tumour cell line growth inhibition, 48 h

Compound	Assayed Target	GI50
NC1=NCCN1CC(=O)O	MOLT-4 leukemia	> 10000 µM
Cc1cn2c(/C=N/N=C(N)N)c(-c3cccnc3)nc2s1	MOLT-4 leukemia	3.66 µM
N#CC1=C(N)NC(=S)NC12Nc1ccccc1N2	MOLT-4 leukemia	22.2 µM
COc1cc(OC)c(NC(=O)c2cc3ccccc3cc2O)cc1Cl	MOLT-4 leukemia	3.98 µM
CC(=O)[C@@]1(O)[C@H](C)C[C@H]2[C@@H]3C=C(C)C4=Cc5c(cnn5-c5ccccc5)C[C@]4(C)[C@H]3[C@@H](O)C[C@@]21C	MOLT-4 leukemia	0.842 µM
CCCCCCCCCCCCOC1C(C(CC(=O)N2CCN(c3cccc(C(F)(F)F)c3)CC2)NS(=O)(=O)c2cc(Cl)cc(Cl)c2)OC2OC(C)(C)OC21 (stereo not given)	MOLT-4 leukemia	> 100 µM
O=C(CCC(C(=O)c1ccccc1)c1ccccc1)c1ccccc1 (stereo not given)	MOLT-4 leukemia	5.75 µM
N#CS.N=C=S.N=C=S.[Cu+2].[NH2-].[NH2-].[NH2-].[NH2-].c1ccc2ncccc2c1	MOLT-4 leukemia	> 100 µM
O=C(NN=C1CCCCC1)c1[nH]c2ccc(F)cc2c1-c1ccccc1	MOLT-4 leukemia	22.5 µM
O=C(/C(=C/c1ccc([N+](=O)[O-])cc1)SCc1ccc(F)cc1)c1ccc(Cl)cc1	MOLT-4 leukemia	3.54 µM
